This listing pairs compounds with measured TGI.
Tested on: RXF 393 renal
Assay: NCI tumour cell line growth inhibition, 48 h

Check out these entries, answers already filled in.
Compound	Result
Oc1ccc(Cn2c(-c3ccc(O)c(O)c3)nc3ccccc32)cc1O	> 100 µM
CCOC(=O)CCC(NC(=O)Cc1ccc(Oc2nc3ccccc3nc2-c2cccs2)cc1)C(=O)OCC (stereo not drawn)	27.5 µM

[ask] Name the recorded TGI of the compound listed here: "Nc1nc2nc[nH]c2c(=O)[nH]1"
[reply] > 100 µM

* * *

Tested on: UACC-62 melanoma
Assay: NCI tumour cell line growth inhibition, 48 h; in the data active means GI50 below about 0.43 µM; inactive means the rest
Output constraint: value belongs to active, inactive

Would you please look over these solved cases?
Chemical string	Qualitative label
CCC(=C/[C@H](C)C/C=C/C(C)=C/[C@@H](C)C(=O)[C@@H](C)[C@H](O)[C@@H](C)CC)/C=C/[C@H]1OC(=O)C=C[C@H]1C	active
CCn1cnc2c(Nc3cccc(Cl)c3)nc(N[C@@H]3CCCC[C@@H]3N)nc21	inactive
N#Cc1ccnc(N2C(=O)CC[C@H]2C(=O)N(c2cncc(F)c2)[C@H](C(=O)NC2CC(F)(F)C2)c2ccccc2Cl)c1	inactive
Cc1[nH]c(=O)[nH]c(=O)c1CO	inactive
Cc1ccc(C)c(-c2csc(Nc3ccc(C)c(C)c3)n2)c1	inactive

Moving on to the next compound.
[ask] // outcome(item) with item = "COc1cc(-c2cc(-c3nc4ccc(Cl)cc4[nH]3)[nH]n2)cc(OC)c1OC"
[reply] inactive
